target or test system: DRB01*07:01
setup conditions: modification not given
value kind: pIC50
Give bare numbers, as −log10 of the molar value.

The reported pIC50 of the binder PKYVKQNTLKLAT [Positive Control …] was 5.64
